METHOD NOTES: basal S. cerevisiae growth modulation, no modifier, primary screen, OD600, strain BY4716, 24 h, basal condition (AID 1173)
RUN CONDITIONS: OD600, 24 h, higher = more signal, called active from +8 up or from −8 down
Overview of recorded z-score for various compounds
RECORDED METRIC: z-score

{"columns": ["COMPOUND", "REPORTED"],
 "data": [
  ["CC(CO)N1C(=O)[C@@H]2C3C(=O)OCCC/C=C\\[C@H]3OC23C=CCN(Cn2nnc4ccccc42)C(=O)[C@@H]13 (some centres undefined)", -0.159],
  ["O=C1O[C@@H](c2ccccc2)[C@@H](c2ccccc2)N2[C@@H](c3ccc(O)cc3)[C@]3(C(=O)Nc4ccc(C#CCCO)cc43)[C@@H](C(=O)Nc3nc4ccccc4s3)[C@H]12", 0.442],
  ["C=C(/C(=C/C[C@@H](OC(=O)c1ccncc1)c1ccccc1OCCO)c1cc(C(=O)OC)ccc1OC)C(C)C", -0.0905],
  ["CCOC(=O)C[C@H]1[C@H](OC(=O)c2ccc(-c3ccccc3)cc2)[C@@H](NC(=O)c2ccc3ccccc3c2)c2cc(OCCCO)ccc2N1C(=O)c1ccc2ccccc2n1", -0.158]
]}

These entries and their values trace back to PubChem BioAssay.
